The measurements presented in this section are drawn from PubChem BioAssay (NCI).

# Tested on: OVCAR-8 ovarian
# assay overview: NCI-60 one-dose screen, 48 h (100 = growth as untreated, 0 = no growth, -100 = all killed)
# condition description: 10 µM unless noted
The panel holds about 83,000 compounds, 20% with a hit somewhere; the sample as a whole holds those more often.
reported property: growth (%)

# compound, tested on, units of measure, value reported
data = [
    ("O=C1/C(=C/c2ccccc2O)N=C2SCCCN12", "OVCAR-8 ovarian", "%", 98.4),
    ("O=C1OC(c2ccccc2)C(O)=C1c1ccccc1 (stereo not drawn)", "OVCAR-8 ovarian", "%", 100),
    ("O=c1nc2oc3ccc4ccccc4c3cc-2s1", "OVCAR-8 ovarian", "%", 29.8),
    ("FC(F)(F)Oc1ccc2nc3nc4ccc[nH]c4cc3c2c1", "OVCAR-8 ovarian", "%", 69.9),
    ("CN1CCN(CCCOc2cccc3nc(Nc4ccc(Cl)c(F)c4)ccc23)CC1", "OVCAR-8 ovarian", "%", 85),
    ("CC[C@@H]1O[C@H](O[C@@H](c2cnc[nH]2)[C@H](NC(=O)c2nc([C@H](CC(N)=O)NC[C@@H](N)C(N)=O)nc(N)c2C)C(=O)N[C@H](C)[C@H](O)[C@H](C)C(=O)N[C@@H](C(=O)NCCc2nc(-c3nc(C(=O)NCCCCN=C(N)N)cs3)cs2)[C@@H](C)O)[C@H](O[C@@H]2O[C@H](CO)[C@H](O)[C@H](OC(N)=O)[C@@H]2O)[C@H](C)[C@@H]1C", "OVCAR-8 ovarian", "%", 47.2),
    ("Cc1cc2nc(NC(=O)CN3CCN(CCN4C(=O)c5cccc6cccc(c56)C4=O)CC3)sc2cc1C", "OVCAR-8 ovarian", "%", 79.7),
    ("Brc1ccc(-c2csc(Nc3ccccn3)n2)cc1", "OVCAR-8 ovarian", "%", 101),
]

---

# Test system: BT-549 breast
# assay overview: NCI-60 one-dose screen, 48 h (100 = growth as untreated, 0 = no growth, -100 = all killed)
# condition description: 10 µM unless noted
This is part of a sample that, as a whole, favours compounds with a hit. Of some 83,000 tested, about 20% had one in any assay. The source made the active and inactive calls. Rule for the calls: active = growth percent below 10; inactive = the rest.
reported property: growth

# molecule, tested on, reported property, value reported
data = [
    ("COc1ccc(-c2nc3ccc(-c4nc5ccc(N6CCN(c7ccncc7)CC6)cc5[nH]4)cc3[nH]2)cc1OC", "BT-549 breast", "growth", "39.4% (inactive)"),
    ("COc1cc(-c2ccc3c(c2)NC(=O)/C3=C\\c2ccc[nH]2)ccc1O", "BT-549 breast", "growth", "46.5% (inactive)"),
    ("O=S(=O)(Nc1ccc(I)cc1F)c1ccc(-c2cnc(C3CC3)o2)cc1", "BT-549 breast", "growth", "45.7% (inactive)"),
    ("CC(=O)c1cc2c(N)c(C(=O)Nc3cccc4ccccc34)sc2nc1C", "BT-549 breast", "growth", "46.5% (inactive)"),
    ("C(=C\\c1nccc2c1[nH]c1ccccc12)/c1ccccc1", "BT-549 breast", "growth", "10.9% (inactive)"),
    ("O=C(Nc1cccc2[nH]c(C(F)(F)F)nc12)c1ccc(-n2cnnn2)cc1", "BT-549 breast", "growth", "63% (inactive)"),
    ("CSc1nc(NCc2ccccc2)c(C#N)c(-c2cccc([N+](=O)[O-])c2)n1", "BT-549 breast", "growth", "95.8% (inactive)"),
    ("COc1ccc(S(=O)(=O)N2CCN(C)CC2)cc1NC(=O)c1[nH]c(C)c2c1CCCCC2=O", "BT-549 breast", "growth", "90.4% (inactive)"),
    ("C#CCOc1ccc2ncnc(Nc3cccc(CNC(=O)C=C)c3)c2c1", "BT-549 breast", "growth", "96.4% [8.25 µM] (inactive)"),
    ("O=C(COc1ccc(/C=C2\\CSc3ccccc3C2=O)cc1)Nc1nccs1", "BT-549 breast", "growth", "112% (inactive)"),
    ("Cc1ccc(C2=NN3C(C2)c2cc(Br)ccc2OC32CCN(Cc3ccccc3)CC2)o1 (centres undefined)", "BT-549 breast", "growth", "92.4% (inactive)"),
    ("COc1ccccc1NS(=O)(=O)c1ccc2oc(SC(C)C)nc2c1", "BT-549 breast", "growth", "87.6% (inactive)"),
    ("Cn1c(=O)[nH]c(=O)c2nc(CCC(=O)NCCC(=O)O)c(=O)[nH]c21", "BT-549 breast", "growth", "105% (inactive)"),
    ("COc1ccc(-n2nc(C)c3c(Nc4ccc(NC(=O)Nc5ccc(Cl)c(C(F)(F)F)c5)cc4)ncnc32)cc1", "BT-549 breast", "growth", "17.2% (inactive)"),
    ("CON1C(=O)CC[C@]2(C)[C@H]3CC[C@@H]4C([C@@]5(C)CCC(=O)O5)CC[C@@]4(C)[C@]3(C)CC[C@H]2C1(C)C (some centres undefined)", "BT-549 breast", "growth", "103% (inactive)"),
    ("CC(=O)NCC1c2c(n(C)c3c(Cl)c(Cl)ccc23)C(=O)NC1(C)C (centres undefined)", "BT-549 breast", "growth", "102% (inactive)"),
    ("Oc1ccccc1-c1nnc(CNc2ccc(Cl)cc2)o1", "BT-549 breast", "growth", "41.1% (inactive)"),
    ("O=C1C=CC(=O)N1c1ccc2c(c1)Cc1cc(F)ccc1-2", "BT-549 breast", "growth", "105% (inactive)"),
    ("COc1ccc(CCNc2nc3c(c(=O)n(Cc4ccc(Br)cc4)c(=O)n3C)n2C)cc1OC", "BT-549 breast", "growth", "86.5% (inactive)"),
    ("Cc1ccc(C2Oc3ccccc3C3CC(c4cccs4)=NN32)cc1 (centres undefined)", "BT-549 breast", "growth", "86.6% (inactive)"),
    ("COc1ccc(-c2cc(NC(=O)Nc3ccc4ncsc4c3)no2)cc1", "BT-549 breast", "growth", "106% (inactive)"),
    ("CN1CCN(CCCOc2cccc3nc(Nc4ccc(Cl)c(F)c4)ccc23)CC1", "BT-549 breast", "growth", "80% (inactive)"),
    ("N#Cc1nnn(-c2ccc(S(N)(=O)=O)cc2)c1NCC(=O)c1ccccc1", "BT-549 breast", "growth", "98% (inactive)"),
    ("COc1ccc(Nc2cc(C)nc(N3CCN(c4ccnc5cc(Cl)ccc45)CC3)n2)cc1", "BT-549 breast", "growth", "51.2% (inactive)"),
    ("Cc1ccc(NS(=O)(=O)c2ccc(-c3cnc(C4CC4)o3)cc2)cc1C", "BT-549 breast", "growth", "35.5% (inactive)"),
    ("CCCCCC(=O)Oc1ccc(/C(=C(\\C)c2ccc(OC)cc2)c2ccc(OCCN3CCCCC3)cc2)cc1", "BT-549 breast", "growth", "72.6% (inactive)"),
    ("COc1ccc(/C=C(\\C#N)C(=O)Nc2cccc(Nc3nc(SC)nc(-c4cccc([N+](=O)[O-])c4)c3C#N)c2)cc1OC", "BT-549 breast", "growth", "95.9% (inactive)"),
    ("COc1cccc2c1C(=O)c1c(O)c3c(c(O)c1C2=O)C[C@](O)(C(=O)CO)C[C@H]3O[C@@H]1C[C@@H](NC(=O)CCCN(C)C2(c3ccc(F)cc3)CC3CCC2C3)[C@H](O)[C@@H](C)O1 (some centres undefined)", "BT-549 breast", "growth", "58.6% (inactive)"),
    ("O=C1/C(=C/C(Cl)=C/c2ccccc2)SC(=S)N1CCc1ccc(O)cc1", "BT-549 breast", "growth", "11.6% (inactive)"),
    ("O=c1cc(CSc2nnc(SCc3cc(=O)oc4c3ccc3ccccc34)o2)c2ccc3ccccc3c2o1", "BT-549 breast", "growth", "107% (inactive)"),
    ("Clc1ccc2nc3nc4ccc[nH]c4cc3c2c1", "BT-549 breast", "growth", "97.7% (inactive)"),
    ("O=C(N=Nc1c(O)[nH]c2ccc(Br)cc12)c1cc(-c2ccccc2)on1", "BT-549 breast", "growth", "104% (inactive)"),
    ("CC(C)n1c(/C=C/[C@@H](O)C[C@@H](O)CC(=O)O)c(-c2ccc(F)cc2)c2ccccc21", "BT-549 breast", "growth", "60.6% (inactive)"),
    ("CC(=O)Oc1ccc(Cl)cc1CN(C(C)=O)C1CCCCC1", "BT-549 breast", "growth", "107% (inactive)"),
    ("COc1ccc(-c2nnc(SCC(=O)c3ccc(Cl)cc3)o2)cc1", "BT-549 breast", "growth", "105% (inactive)"),
    ("Cn1cc(-c2nonc2-c2cn(C)c3ccc(F)cc23)c2cc(F)ccc21", "BT-549 breast", "growth", "68.6% (inactive)"),
    ("COc1cc2nc(N3CCCC3)nc(NCc3ccccc3)c2cc1OC", "BT-549 breast", "growth", "70.5% (inactive)"),
    ("CCOc1ccc(-n2nc(C(=O)Nc3cc(OC)c(OC)c(OC)c3)nc2-c2cc(OC)c(OC)c(OC)c2)cc1", "BT-549 breast", "growth", "91.4% (inactive)"),
    ("CCNC(=O)Oc1ccc(/C(=C(\\C)c2ccc(Cl)cc2)c2ccc(OCCN3CCCCC3)cc2)cc1", "BT-549 breast", "growth", "72.8% (inactive)"),
]
